target: T1, 6xHisLip-VIN3VEL RR>AD (ITC) (Arabidopsis thaliana, UniProt Q9FIE3 529-603, R554A | R556D)
T1 construct: VEL domain of VIN3, Arabidopsis thaliana, Q9FIE3, R554A R556D; residues 529-603 by the methods' rule for pLipK-VIN3VEL ('unless specified otherwise'); also called VIN3VEL head mutant; source: E. coli BL21(DE3) pRARE2, purified (Ni-NTA, SEC); not shown: 6xHis, N-terminal, kept; lipoyl (Lip) solubility tag, N-terminal, kept
T1 sequence (looked up): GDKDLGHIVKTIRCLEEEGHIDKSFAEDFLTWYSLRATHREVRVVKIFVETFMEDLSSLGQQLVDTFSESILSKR
testMethodNotes: ITC; 25°C; 1 mM 6xHisLip-VIN3VEL I575D injected into 100 μM 6xHisLip-VIN3VEL RR>AD; 25 mM Tris pH 7.4, 200 mM NaCl, 0.5 mM DTT, 0.06% NaN3; head-to-tail interface between a head mutant and a tail mutant
details: both partners purified

# binder, Kd, nM
data = [
    ("6xHisLip-VIN3VEL I575D (ITC) (domain or fragment, Arabidopsis thaliana, UniProt Q9FIE3 529-603, looked up, VEL domain of VIN3, Arabidopsis thaliana, Q9FIE3, I575D; residues 529-603 by the methods' rule for pLipK-VIN3VEL ('unless specified otherwise'); also called VIN3VEL tail mutant; source: E. coli BL21(DE3) pRARE2, purified (Ni-NTA, SEC); not shown: 6xHis, N-terminal, kept; lipoyl (Lip) solubility tag, N-terminal, kept) GDKDLGHIVKTIRCLEEEGHIDKSFRERFLTWYSLRATHREVRVVKDFVETFMEDLSSLGQQLVDTFSESILSKR", 1160),
]
